protocol_text: P. aeruginosa biofilm formation inhibitors, primary screen, strain PAO1, LB-PBS medium, absorbance 600 nm (AID 1176); also: test concentration not given here
assay_context: P. aeruginosa PAO1 growth/biofilm, A600, 12 h; higher = more signal
metric: z-score
Lab note: jot down the number only; don't add units.

Before answering, review these 6 worked examples.
// query So what does the record say about z-score for "C=C(CCCC)C(=O)CC[C@H](OC(=O)c1ccccc1-c1ccccc1C(=O)O)c1ccccc1OCCO" ?
// result 0.91

// query Now consider "COC(=O)C(CC#Cc1ccc2c(c1)[C@]1(C(=O)N2)[C@H](C(=O)Nc2nc3ccccc3s2)[C@H]2C(=O)O[C@H](c3ccccc3)[C@H](c3ccccc3)N2[C@@H]1c1ccc(OCCO)cc1)C(=O)OC" and answer again.
// result 3.52

// query Record: CCN(CC)c1ccc(N2CC=CC34O[C@@H]5C=CCCOC(=O)C5[C@H]3C(=O)N(CCO)[C@@H]4C2=O)cc1 (some centres not stated)
// result 0.469

// query Input "Cc1c(NC(=O)/C(C#N)=C/c2ccccc2Cl)c(=O)n(-c2ccccc2)n1C"
// result 0.543

// query Same for COc1cc(NN2C(C(O)C3CCCCC3)C=CC3C(=O)N(C)C(=O)C32)cc(OC)c1OC (configuration not stated)
// result 0.462

// query Proceed to Cc1ccccc1C(O)C1C=CC2C(=O)NC(=O)C2N1Nc1ccc(Cl)cc1Cl (configuration not stated)
// result 1.15

From here, focus on the item given below.
// query Report z-score for "C=CCN1C(=O)[C@]2(O[C@H](CCO)[C@@H]([Si](C)(C)c3ccc(OC)cc3)[C@@H]2C)c2cc(NC(=O)c3ccc(OC)cc3)ccc21" please.
// result 1.98

###

protocol_text: HepG2 liver cancer cell viability effects, profiling panel, resazurin fluorescence, 24 h, PK04 Diversity Set (AID 1172); also: test concentration not given here
assay_context: higher = more signal
metric: z-score
Please respond with just the number, no unit label.

// query May I ask what z-score has been recorded for "Cc1ccc(S[C@]2(C(=O)NC(C)C)CC(=O)N(Cc3ccccc3Cl)[C@@H]2c2ccc(CO)cc2)cc1" ?
// result -0.167

// query "CC(=O)NCCCC[C@@H]1NC(=O)[C@H]2C[C@@H](C(=O)NCCCCCNC(=O)CS)[C@@H](c3cccc(OCCO)c3)N2C1=O" , same question.
// result -0.223

// query Could you do the same for COc1cc(NN2C(C(O)c3ccccc3)C=CC3C(=O)N(C)C(=O)C32)cc(OC)c1OC (stereo unspecified) , please?
// result -2.2

// query Entry C=CCC(OC(C)=O)[C@@H]1[C@@H](N(Cc2ccc(-c3ccccc3)cc2)C(=O)c2ccc(C)cc2)c2cc(OCCCO)ccc2N1C(=O)Cc1ccc2ccccc2c1 (stereo partly specified) please
// result 1.03

// query Check "CCCCC=C[C@@H](NC(=O)c1ccccc1)c1ccccc1" too.
// result -0.35

Below: the item to evaluate.
// query What value of z-score has been recorded for this entry: CCCCCN1CC=CC23O[C@@H]4/C=C\CCC(C)OC(=O)C4[C@H]2C(=O)N(CCCCCCO)[C@@H]3C1=O (stereo partly specified)
// result 1.1

###

measured_on: Follistatin-related protein 3 (Homo sapiens)
protocol_text: FSTL3 binders on small-molecule microarrays, primary screen, biochemical, small-molecule microarray, 635 nm fluorescence (AID 1105);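 also: score merges emission near 667 nm and signal to noise per printed spot across three slides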
assay_context: FSTL3 binding, higher = more signal
metric: composite z-score
// print number alone

// query What value of composite z-score has been reported for the following compound? "C=C(/C(=C/C[C@@H](OC(C)=O)c1ccc(CO)o1)c1cc(C(=O)OC)ccc1OC)C(C)C"
// result 0.347

// query And what about the compound "COC(=O)[C@@]1(Cc2ccccc2)[C@H]2c3cc(C(=O)N4CCCC4)n(CCSCCO)c3C[C@H]2CN1C(=O)c1ccccc1" ?
// result 0.414

// query And "[N-]=[N+]=NCc1ccccc1[C@@H]1OC(c2ccc(OCCCO)cc2)=N[C@]1(Cc1ccccc1)C(=O)NCCN1CCOCC1" ?
// result 0.567

// query Cool, now C=CCC(OC(C)=O)[C@@H]1[C@@H](N(Cc2cccc3ccccc23)C(=O)c2cccc3ccccc23)c2cc(OCCCO)ccc2N1C(=O)c1ccc2ccccc2c1 (some centres not stated)
// result 0.423

// query Next up: COc1cc(NN2C(C(O)C3CCCCC3)C=CC3C(=O)N(C)C(=O)C32)cc(OC)c1OC (configuration not stated)
// result 1.06

// query Also "CCCCC(=O)N(CCN1CCOCC1)[C@@H]1CC(C(=O)NCCO)=C[C@H](Oc2c(I)cc(CO)cc2OC)[C@H]1O" , if possible.
// result 0.412

// query Now the same for "COC(=O)C(CC#Cc1ccc2c(c1)[C@]1(C(=O)N2)[C@H](c2ccc(OCCO)cc2)N2[C@H](c3ccccc3)[C@H](c3ccccc3)OC(=O)[C@H]2[C@@H]1C(=O)N1CCN(c2ncccn2)CC1)C(=O)OC"
// result 1.37
